Molecular target: T1, TNFR1 (Homo sapiens, UniProt P19438)
T1 chain: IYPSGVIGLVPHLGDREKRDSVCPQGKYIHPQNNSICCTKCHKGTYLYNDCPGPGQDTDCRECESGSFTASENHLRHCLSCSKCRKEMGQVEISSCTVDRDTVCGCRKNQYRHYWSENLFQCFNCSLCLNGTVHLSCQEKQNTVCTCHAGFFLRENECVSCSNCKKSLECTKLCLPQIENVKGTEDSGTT
Experiment: yeast display SC50
Observation Type: apparent Kd (screen) (nM)

I21E (designed binder) SMEEEVEKAAKEYEKKKKEAEEKHLEKLKAKDKEAAERFLKELEEAAKEYAKDEAKTMSEEEAKRRAKKYKEKVLLSELSEEEQKEIKEAEEKLVRTILKYVEEAAK | 0.539
A47R (designed binder) SMEEEVEKAAKEYEKKKKEAIEKHLEKLKAKDKEAAERFLKELEEARKEYAKDEAKTMSEEEAKRRAKKYKEKVLLSELSEEEQKEIKEAEEKLVRTILKYVEEAAK | 0.49

[A] E103I (designed binder) SMEEEVEKAAKEYEKKKKEAIEKHLEKLKAKDKEAAERFLKELEEAAKEYAKDEAKTMSEEEAKRRAKKYKEKVLLSELSEEEQKEIKEAEEKLVRTILKYVIEAAK
[B] E42H (designed binder) SMEEEVEKAAKEYEKKKKEAIEKHLEKLKAKDKEAAERFLKHLEEAAKEYAKDEAKTMSEEEAKRRAKKYKEKVLLSELSEEEQKEIKEAEEKLVRTILKYVEEAAK
Problem: For the two items A and B , which reports the higher apparent Kd (screen) value? Refer to your chosen entry by its label in the reply.
Result: B
